# Species: Rattus norvegicus
# Test Name: Open TG-GATES - Regimen: Single
# Format: toxicity, organism-based, Sprague-Dawley
# Design: regimen Single, gender Male, age 6 weeks
# Experimental Setup: in vivo, po, 300 mg/kg, 3 h, tissue Blood, route gavage, dose level Middle
Endpoint Name: Mono (%)
Numeric only. Scale: %

[[record]]
smiles_text = "CNC(=C[N+](=O)[O-])NCCSCc1ccc(CN(C)C)o1"
reading = 2.4

[[record]]
smiles_text = "O=C(OC[C@H]1O[C@@H](OC(=O)c2cc(O)c(O)c(OC(=O)c3cc(O)c(O)c(O)c3)c2)[C@H](OC(=O)c2cc(O)c(O)c(OC(=O)c3cc(O)c(O)c(O)c3)c2)[C@@H](OC(=O)c2cc(O)c(O)c(OC(=O)c3cc(O)c(O)c(O)c3)c2)[C@@H]1OC(=O)c1cc(O)c(O)c(OC(=O)c2cc(O)c(O)c(O)c2)c1)c1cc(O)c(O)c(OC(=O)c2cc(O)c(O)c(O)c2)c1"
reading = 7.6

[[record]]
smiles_text = "COC(=O)C1=C(C)NC(C)=C(C(=O)OC)C1c1ccccc1[N+](=O)[O-]"
reading = 3.8

[[record]]
smiles_text = "CN/C(=N/CCSCc1nc[nH]c1C)NC#N"
reading = 3


Now examine the next entry.
Answer with reported Mono of Cc1nnc2n1-c1ccc(Cl)cc1C(c1ccccc1Cl)=NC2
3

###

# Organism: Rattus norvegicus
# Test Name: Open TG-GATES - Regimen: Daily Repeat
# Assay type: toxicity, organism-based, Sprague-Dawley
# Design: regimen Daily Repeat, gender Male, age 6 weeks
# Experimental Setup: in vivo, po, 0 mg/kg, […], tissue Blood, route gavage, dose level Control, time 14 day
Please note: Neu exactly at 20% is label 0. Only values below 20% get label 1.

# count of solved cases: 4
[[record]]
smiles_text = "COC(=O)C1=C(C)NC(C)=C(C(=O)OC)C1c1ccccc1[N+](=O)[O-]"
group = "label 1"

[[record]]
smiles_text = "CCOc1ccc(NC(C)=O)cc1"
group = "label 0"

[[record]]
smiles_text = "Nc1c2c(nc3ccccc13)CCCC2"
group = "label 1"

[[record]]
smiles_text = "CCCc1cc(=O)[nH]c(=S)[nH]1"
group = "label 1"


Hello, I'm reviewing records and need to know if Neu of O=C(OC[C@H]1O[C@@H](OC(=O)c2cc(O)c(O)c(OC(=O)c3cc(O)c(O)c(O)c3)c2)[C@H](OC(=O)c2cc(O)c(O)c(OC(=O)c3cc(O)c(O)c(O)c3)c2)[C@@H](OC(=O)c2cc(O)c(O)c(OC(=O)c3cc(O)c(O)c(O)c3)c2)[C@@H]1OC(=O)c1cc(O)c(O)c(OC(=O)c2cc(O)c(O)c(O)c2)c1)c1cc(O)c(O)c(OC(=O)c2cc(O)c(O)c(O)c2)c1 is below 20%. Could you check?
label 1

Is it true that Neu reported for Cc1nnc2n1-c1ccc(Cl)cc1C(c1ccccc1Cl)=NC2 is less than 20%?
label 0

###

# Species on record: Rattus norvegicus
# Test Name: Open TG-GATES - Regimen: Single
# Type: toxicity, organism-based, Sprague-Dawley
# Parameters: regimen Single, gender Male, age 6 weeks
# Experimental Setup: in vivo, po, 0 mg/kg, 24 h, tissue Blood, route gavage, dose level Control
Measured PT accompanies every entry in the list below.
Write down the numeric answer in s and omit the unit.

[[record]]
compound = "COC(=O)C1=C(C)NC(C)=C(C(=O)OC)C1c1ccccc1[N+](=O)[O-] [NIFEDIPINE]"
endpoint_name = "PT"
u = "s"
reading = 14.2

[[record]]
compound = "CC(C)NNC(=O)c1ccncc1 [IPRONIAZID]"
endpoint_name = "PT"
u = "s"
reading = 16.7

[[record]]
compound = "CN(C)CCC(c1ccc(Cl)cc1)c1ccccn1 (stereo not drawn) [CHLORPHENIRAMINE]"
endpoint_name = "PT"
u = "s"
reading = 14.7

[[record]]
compound = "CN/C(=N/CCSCc1nc[nH]c1C)NC#N [CIMETIDINE]"
endpoint_name = "PT"
u = "s"
reading = 12.1

[[record]]
compound = "Cc1nnc2n1-c1ccc(Cl)cc1C(c1ccccc1Cl)=NC2 [TRIAZOLAM]"
endpoint_name = "PT"
u = "s"
reading = 13.1


In one line, give reported PT of the entry Nc1c2c(nc3ccccc13)CCCC2 [TACRINE] .
16.3

Give a short answer stating reported PT for CCCc1cc(=O)[nH]c(=S)[nH]1 [PROPYLTHIOURACIL] .
12.4

Using known records, supply PT for O=C(OC[C@H]1O[C@@H](OC(=O)c2cc(O)c(O)c(OC(=O)c3cc(O)c(O)c(O)c3)c2)[C@H](OC(=O)c2cc(O)c(O)c(OC(=O)c3cc(O)c(O)c(O)c3)c2)[C@@H](OC(=O)c2cc(O)c(O)c(OC(=O)c3cc(O)c(O)c(O)c3)c2)[C@@H]1OC(=O)c1cc(O)c(O)c(OC(=O)c2cc(O)c(O)c(O)c2)c1)c1cc(O)c(O)c(OC(=O)c2cc(O)c(O)c(O)c2)c1 [TANNIC ACID]
11.8

###

# Organism: Rattus norvegicus
# Test Name: Open TG-GATES - Regimen: Single
# Assay type: toxicity, organism-based, Sprague-Dawley
# Design: regimen Single, gender Male, age 6 weeks
# Experimental Setup: in vivo, po, 100 mg/kg, 6 h, tissue Plasma, route gavage, dose level Low
Endpoint Name: TP (g/dL)
Form entry: value (g/dL) — number only.

[[record]]
smiles_text = "Cc1nnc2n1-c1ccc(Cl)cc1C(c1ccccc1Cl)=NC2"
reading = 5.1

[[record]]
smiles_text = "CNC(=C[N+](=O)[O-])NCCSCc1ccc(CN(C)C)o1"
reading = 5.4


Specify measured TP for COC(=O)C1=C(C)NC(C)=C(C(=O)OC)C1c1ccccc1[N+](=O)[O-] .
5.5

Tell us which TP value is on record for CN/C(=N/CCSCc1nc[nH]c1C)NC#N
5.5

Answer with the recorded TP for the molecule listed here: O=C(OC[C@H]1O[C@@H](OC(=O)c2cc(O)c(O)c(OC(=O)c3cc(O)c(O)c(O)c3)c2)[C@H](OC(=O)c2cc(O)c(O)c(OC(=O)c3cc(O)c(O)c(O)c3)c2)[C@@H](OC(=O)c2cc(O)c(O)c(OC(=O)c3cc(O)c(O)c(O)c3)c2)[C@@H]1OC(=O)c1cc(O)c(O)c(OC(=O)c2cc(O)c(O)c(O)c2)c1)c1cc(O)c(O)c(OC(=O)c2cc(O)c(O)c(O)c2)c1
5.3

###

# Organism: Rattus norvegicus
# Test Name: Open TG-GATES - Regimen: Single
# Format: toxicity, organism-based, Sprague-Dawley
# Set-up: regimen Single, gender Male, age 6 weeks
# Experimental Setup: in vivo, po, 0 mg/kg, 9 h, tissue Plasma, route gavage, dose level Control
Listed below: BUN values for each entry.
Mention the unit after the number when you answer.

Output BUN of Nc1c2c(nc3ccccc13)CCCC2
12.6 mg/dL

Note BUN for the compound shown: CCCc1cc(=O)[nH]c(=S)[nH]1
13.8 mg/dL

For the compound CN/C(=N/CCSCc1nc[nH]c1C)NC#N , report BUN.
12.6 mg/dL

Give the value of BUN reported for the following: Cc1nnc2n1-c1ccc(Cl)cc1C(c1ccccc1Cl)=NC2
9.2 mg/dL

Give recorded BUN. CCOc1ccc(NC(C)=O)cc1
9.2 mg/dL

Give reported BUN value for NC1=NC(=O)C(c2ccccc2)O1 (stereo unspecified)
8.2 mg/dL

###

# Organism: Rattus norvegicus
# Test Name: Open TG-GATES - Regimen: Single
# Assay type: toxicity, organism-based, Sprague-Dawley
# Design: regimen Single, gender Male, age 6 weeks
# Experimental Setup: in vivo, po, 0 mg/kg, 24 h, tissue Plasma, route gavage, dose level Control
Endpoint Name: BUN (mg/dL)
Please reply with the bare figure in mg/dL and do not write the unit itself.

[[record]]
compound = "CN(C)CCC(c1ccc(Cl)cc1)c1ccccn1 (stereo not drawn)"
u = "mg/dL"
reading = 14.6

[[record]]
compound = "CN1C(=O)CCS(=O)(=O)C1c1ccc(Cl)cc1 (stereo not drawn)"
u = "mg/dL"
reading = 16.4


Then there is this compound:
Consider the compound CC(C)NNC(=O)c1ccncc1 . State its measured BUN.
17.2

###

# Species on record: Rattus norvegicus
# Test Name: Open TG-GATES - Regimen: Single
# Assay type: toxicity, organism-based, Sprague-Dawley
# Parameters: regimen Single, gender Male, age 6 weeks
# Experimental Setup: in vivo, po, 1000 mg/kg, 3 h, tissue Plasma, route gavage, dose level High
Values of ALP strictly less than 1000 IU/L map to YES, and values of at least 1000 IU/L map to NO.

[[record]]
smiles_text = "CNC(=C[N+](=O)[O-])NCCSCc1ccc(CN(C)C)o1"
group = "YES"

[[record]]
smiles_text = "O=C(OC[C@H]1O[C@@H](OC(=O)c2cc(O)c(O)c(OC(=O)c3cc(O)c(O)c(O)c3)c2)[C@H](OC(=O)c2cc(O)c(O)c(OC(=O)c3cc(O)c(O)c(O)c3)c2)[C@@H](OC(=O)c2cc(O)c(O)c(OC(=O)c3cc(O)c(O)c(O)c3)c2)[C@@H]1OC(=O)c1cc(O)c(O)c(OC(=O)c2cc(O)c(O)c(O)c2)c1)c1cc(O)c(O)c(OC(=O)c2cc(O)c(O)c(O)c2)c1"
group = "YES"

[[record]]
smiles_text = "Cc1nnc2n1-c1ccc(Cl)cc1C(c1ccccc1Cl)=NC2"
group = "NO"

[[record]]
smiles_text = "CN/C(=N/CCSCc1nc[nH]c1C)NC#N"
group = "NO"


Given the entry COC(=O)C1=C(C)NC(C)=C(C(=O)OC)C1c1ccccc1[N+](=O)[O-] , would its reported ALP be below 1000 IU/L?
NO

Hey, just so you know, these numbers are from ChEMBL document CHEMBL3885861.
